system: Noggin (protein binding on small-molecule microarray); assay: Noggin binders on small-molecule microarray, primary screen, biochemical, 635/667 nm fluorescence (AID 1095); settings: 635 nm fluorescence, higher = more signal;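 also: score merges 667 nm feature fluorescence with signal to noise over triplicate slides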
TEST_READOUT: composite z-score
One number for each entry.

Here is how some compounds turned out for composite z-score.
{"COMPOUND": "COc1ccc([Si](C)(C)[C@@H]2[C@@H](CCO)O[C@]3(C(=O)N(Cc4ccc(N(C=O)c5ccccc5)cc4)c4ccccc43)[C@H]2C)cc1", "TEST_READOUT": "composite z-score", "VALUE_MEASURED": 0.445}
{"COMPOUND": "CC(C)NC(=O)[C@@]1(C)c2ccccc2C(=O)N(Cc2cc(C(F)(F)F)cc(C(F)(F)F)c2)[C@H]1c1ccc(CO)cc1", "TEST_READOUT": "composite z-score", "VALUE_MEASURED": -0.729}
{"COMPOUND": "COc1ccc(C#Cc2ccc3c(c2)[C@]2(C(=O)N3)[C@H](c3ccccc3OCCO)N3[C@H](c4ccccc4)[C@H](c4ccccc4)OC(=O)[C@H]3[C@@H]2C(=O)Nc2nc3ccccc3s2)cc1", "TEST_READOUT": "composite z-score", "VALUE_MEASURED": 0.785}
{"COMPOUND": "COc1ccc([C@H]2OC[C@@H]3C[C@@H](Cc4ccccc4)C(=O)N32)cc1", "TEST_READOUT": "composite z-score", "VALUE_MEASURED": 0.892}
{"COMPOUND": "CCCc1cc2c(n1Cc1cc(F)cc(F)c1)C(C)C1CN(C(=O)c3ccccc3)C(C)(C(=O)OC)C21 (stereo not drawn)", "TEST_READOUT": "composite z-score", "VALUE_MEASURED": -0.266}
{"COMPOUND": "CC#CC(=O)Oc1ccccc1C=CC(=O)OCC", "TEST_READOUT": "composite z-score", "VALUE_MEASURED": 0.664}
{"COMPOUND": "NC(=O)N1C(=O)C2C(C1=O)C1C=C(c3ccc(CO)cc3)C2C(c2cccs2)N1Cc1cccc(OC(F)(F)F)c1 (stereo not drawn)", "TEST_READOUT": "composite z-score", "VALUE_MEASURED": -0.312}

// below: composite z-score requested for another compound
Task: Tell me the measured composite z-score of "CCCC#C[Si](O[C@H](CC)c1cn(Cc2cccc(Cl)c2)nn1)(C(C)C)C(C)C" , please.
Result: 0.476

###

target: Dickkopf-related protein 1 (Homo sapiens) (UniProt O94907); experiment: DKK1 binders on small-molecule microarrays, primary screen, biochemical, small-molecule microarray, 635 nm fluorescence scan (AID 1106); settings: DKK1 binding, higher = more signal;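 also: score merges emission near 667 nm with signal to noise over three replicate slides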
Sequence (O94907 whole entry, looked up): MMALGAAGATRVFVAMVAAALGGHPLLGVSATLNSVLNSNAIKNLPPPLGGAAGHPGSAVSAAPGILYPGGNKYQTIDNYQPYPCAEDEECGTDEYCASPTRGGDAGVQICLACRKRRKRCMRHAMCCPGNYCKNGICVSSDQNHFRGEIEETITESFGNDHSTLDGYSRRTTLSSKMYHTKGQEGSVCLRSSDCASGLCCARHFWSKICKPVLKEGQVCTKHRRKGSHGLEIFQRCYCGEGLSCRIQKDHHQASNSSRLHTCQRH
Answer each item with its documented composite z-score.

Here is how some compounds turned out for composite z-score.
{"SMI": "CCCC[C@@H]1C[C@H]1[C@@H](NC(=O)c1ccco1)c1ccccc1C(F)(F)F", "VALUE_MEASURED": -0.316}
{"SMI": "O=C1C[C@@](C(=O)NCCN2CCOCC2)(c2ccc([N+](=O)[O-])cc2)[C@@H](c2ccc(CO)cc2I)N1CC12CC3CC(CC(C3)C1)C2", "VALUE_MEASURED": 0.324}

Give composite z-score for all compounds that follow.
1. O=C(c1ccccc1)N1Cc2ccccc2C[C@@]2(COC(c3ccc(OCCCO)cc3)=N2)C1=O
2. COC(=O)C[C@H]1O[C@]2(C(=O)N(C)c3ccccc32)[C@@H](C)[C@@H]1[Si](C)(C)F

Result:
1: 0.146; 2: 0.695
